Molecular target: Ubiquitin carboxyl-terminal hydrolase 1/WD repeat-containing protein 48 (Homo sapiens, UniProt O94782+Q8TAF3)
Sequence (O94782 whole entry): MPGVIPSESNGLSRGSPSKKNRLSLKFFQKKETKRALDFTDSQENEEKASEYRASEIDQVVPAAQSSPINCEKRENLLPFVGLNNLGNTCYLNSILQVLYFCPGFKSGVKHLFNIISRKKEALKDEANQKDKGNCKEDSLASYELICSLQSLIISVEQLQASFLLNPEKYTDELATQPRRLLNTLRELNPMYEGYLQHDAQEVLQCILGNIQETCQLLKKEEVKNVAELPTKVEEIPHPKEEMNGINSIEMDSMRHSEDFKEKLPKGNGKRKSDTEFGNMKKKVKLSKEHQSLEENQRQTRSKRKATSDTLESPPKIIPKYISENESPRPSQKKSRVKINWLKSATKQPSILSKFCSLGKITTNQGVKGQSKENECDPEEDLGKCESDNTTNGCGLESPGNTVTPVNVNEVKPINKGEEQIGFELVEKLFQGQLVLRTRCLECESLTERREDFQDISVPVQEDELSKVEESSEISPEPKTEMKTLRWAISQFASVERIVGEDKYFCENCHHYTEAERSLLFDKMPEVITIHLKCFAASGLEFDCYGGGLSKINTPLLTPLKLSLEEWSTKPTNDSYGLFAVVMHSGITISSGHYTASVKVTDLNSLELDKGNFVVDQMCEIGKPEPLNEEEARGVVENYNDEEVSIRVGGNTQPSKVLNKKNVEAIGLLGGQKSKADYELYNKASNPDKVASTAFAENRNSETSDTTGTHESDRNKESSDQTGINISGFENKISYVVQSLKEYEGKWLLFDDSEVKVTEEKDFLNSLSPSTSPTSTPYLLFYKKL
Sequence (Q8TAF3 whole entry): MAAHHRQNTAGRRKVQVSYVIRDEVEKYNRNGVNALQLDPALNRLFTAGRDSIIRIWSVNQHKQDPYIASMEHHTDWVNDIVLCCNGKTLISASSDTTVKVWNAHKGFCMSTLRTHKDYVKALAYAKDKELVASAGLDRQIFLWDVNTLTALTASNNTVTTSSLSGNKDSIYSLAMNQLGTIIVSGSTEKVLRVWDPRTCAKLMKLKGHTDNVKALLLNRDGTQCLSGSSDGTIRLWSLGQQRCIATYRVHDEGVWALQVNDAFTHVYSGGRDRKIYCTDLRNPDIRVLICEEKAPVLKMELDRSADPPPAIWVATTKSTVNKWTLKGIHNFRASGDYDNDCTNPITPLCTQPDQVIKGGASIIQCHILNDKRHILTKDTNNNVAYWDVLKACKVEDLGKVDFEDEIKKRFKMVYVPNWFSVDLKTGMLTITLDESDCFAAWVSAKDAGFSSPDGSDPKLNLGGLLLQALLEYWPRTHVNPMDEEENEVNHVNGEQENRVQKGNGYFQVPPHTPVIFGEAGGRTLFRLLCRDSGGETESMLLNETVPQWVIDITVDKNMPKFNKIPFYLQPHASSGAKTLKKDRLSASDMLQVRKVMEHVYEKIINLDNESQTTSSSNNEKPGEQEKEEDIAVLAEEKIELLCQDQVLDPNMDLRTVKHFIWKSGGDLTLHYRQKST
Assay: In Vitro USP1  Inhibitory Activity
As shown below, each of these compounds has a reported IC50 value.
quantity: IC50 (nM)

query-smiles | quantity | readout-number
COc1cnc(-c2c(OC)ncnc2C2CC2)nc1NCc1ccc(-c2ccccn2)cc1 | IC50 | 6.5
COc1ncnc(C2CC2)c1-c1ncc2c(n1)N(CC1CCN(c3nc(C(F)(F)F)cn3C)CC1)C(=O)CO2 | IC50 | 37
COc1cnc(-c2c(OC)ncnc2C2CC2)nc1NCc1ccc(-c2nc(C(F)(F)F)cn2C(C)C)cc1 | IC50 | 2.9
COc1cnc(-c2ccccc2C(C)C)nc1NCC1CCN(c2ccccn2)CC1 | IC50 | 7.6
